Target: T1, TNFR1 (Homo sapiens, UniProt P19438)
T1 chain: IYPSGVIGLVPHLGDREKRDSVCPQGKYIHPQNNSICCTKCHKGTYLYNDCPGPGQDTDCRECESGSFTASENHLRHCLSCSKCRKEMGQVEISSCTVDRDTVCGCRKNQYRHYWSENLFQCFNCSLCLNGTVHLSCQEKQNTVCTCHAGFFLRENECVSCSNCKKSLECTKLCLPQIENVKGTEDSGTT
Test: yeast display SC50
observable: apparent Kd (screen) (nM)

| binder | reading unit | value reported |
| --- | --- | --- |
| A69F (designed binder) MTLQELLREEALRRAEAEAFRYALELLAEKFPEQKEYLLDLAEEIESQIRSLSGVDVEDVRKFLDKEWFWVKELLAEHPAELAEVEAARAARLAELRAEVEAKVAA | nM | 0.956 |
| R8Q (designed binder) MTLQELLQEEALRRAEAEAFRYALELLAEKFPEQKEYLLDLAEEIESQIRSLSGVDVEDVRKFLDKEWAWVKELLAEHPAELAEVEAARAARLAELRAEVEAKVAA | nM | 0.653 |

(1) A90H (designed binder) MTLQELLREEALRRAEAEAFRYALELLAEKFPEQKEYLLDLAEEIESQIRSLSGVDVEDVRKFLDKEWAWVKELLAEHPAELAEVEAARHARLAELRAEVEAKVAA
(2) S53Y (designed binder) MTLQELLREEALRRAEAEAFRYALELLAEKFPEQKEYLLDLAEEIESQIRSLYGVDVEDVRKFLDKEWAWVKELLAEHPAELAEVEAARAARLAELRAEVEAKVAA
Lower value for measured apparent Kd (screen)? Options: 1 , 2 Could you answer with the label of the item you picked? 1
(1: 0.869 nM, 2: 6.43 nM)
